# pIC50 annotations
# System: HCT116 colon carcinoma cells
# procedure_summary: HCT116 colon carcinoma cell growth inhibition (WST-1, 72 hr)
# Assay type: cell-based, human
# stated_conditions: 72 hr exposure
# pIC50 is unitless: minus log10 of the molar concentration; print number only

Guide cases for pIC50, answers given:
>  <compound>
COC(=O)c1ccc(-c2ccc(S(=O)(=O)NC(=O)c3ccc(Cl)cc3Cl)cc2)cc1 [Example 123]

>  <tgt>
HCT116 colon carcinoma cells

>  <pIC50>
4.42

$$$$
>  <compound>
CSc1ccc(-c2ccc(S(=O)(=O)NC(=O)c3ccc(Cl)cc3Cl)cc2)cc1 [Example 108]

>  <tgt>
HCT116 colon carcinoma cells

>  <pIC50>
4.80

$$$$
>  <compound>
COc1ccccc1-c1ccc(S(=O)(=O)NC(=O)c2ccc(Cl)cc2Cl)cc1 [Example 122]

>  <tgt>
HCT116 colon carcinoma cells

>  <pIC50>
4.59

$$$$

Query COC(=O)c1ccc(S(=O)(=O)NC(=O)c2ccc(Cl)cc2Br)cc1 [Example 30] yields pIC50 of 5.00

Query CC(=O)c1cccc(-c2ccc(S(=O)(=O)NC(=O)c3ccc(Cl)cc3Cl)cc2)c1 [Example 109] yields pIC50 of 4.60
